Value source: patent US20260209325A1

molecular target: T1, murine pro-myostatin (mouse, UniProt O08689 25-376, biotinylated (in the SPR assay)); assay: SPR Biacore 8K, biotin-antigen captured
T1 construct: also called proGDF8 (mouse); mouse pro-myostatin
Kd reference
Write down the numeric answer in nM and omit the unit.

Completed entries (count: 5):
[
  {
    "Binder": "Ab123 (antibody, human IgG4 S228P, kappa, V domains shown) VH: EVQLVESGGGLVQPGGSLRLSCAASGFTFSKYDMSWVRQAPGKGLELVASISSSGGTRYYPDSVKGRFTISRDNAKNSLYLQMNSLRAEDTAVYYCAKDLWVASPGYGMDVWGQGTTVTVSS VL: DIVMTQSPLSLPVTPGEPASISCRSSQSLLHSSGHNYLHWYLQKPGQSPQLLIYLGSIRAPGVPDRFSGSGSGTDFTLKISRVEAEDVGVYYCMQALLNPPTFGGGTKVEIKR",
    "Kd, nM": 0.618
  },
  {
    "Binder": "Ab128 (antibody, human IgG4 S228P, kappa, V domains shown) VH: EVQLVESGGGLVQPGGSLRLSCTASGFTLSSYSMDWVRQAPGKGLEWVSYITGSGDTTYYADSVKGRFTISRDNAKNTLYLQMNSLRAEDTAVYYCARGFGWISGWAEDYFDYWGQGTLVTVSS VL: DIQMTQSPSSLSASVGDRVTITCQASQSVYSYLNWYQQKPGKAPKLLIYGASRLEGGVPSRFSGSGSGTDFTFTISSLQPEDIATYYCQQHSTDQRTFGGGTKVEIKR",
    "Kd, nM": 0.716
  },
  {
    "Binder": "Ab106 (antibody, human IgG4 S228P, kappa, V domains shown) VH: EVQLVESGGGLVQPGGSLRLSCAASGSAFSSYGMSWVRQAPGKGLELVASINSNGGSTYYPDSVKGRFTISRDNAKNSLYLQMNSLRAEDTAVYYCARDLLVRFLEWAGYYGMDVWGQGTTVTVSS VL: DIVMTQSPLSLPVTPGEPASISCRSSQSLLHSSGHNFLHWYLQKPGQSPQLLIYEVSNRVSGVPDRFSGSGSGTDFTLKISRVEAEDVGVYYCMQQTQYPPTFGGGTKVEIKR",
    "Kd, nM": 0.162
  },
  {
    "Binder": "Ab109 (antibody, human IgG4 S228P, kappa, V domains shown, human IgG4 in the EM experiment; also called Ab109 Human IgG4) VH: EVQLVESGGGLVQPGGSLRLSCAASGFTFSSYGMSWVRQAPGKGLELVASFTGSGGTYYPDSVKGRFTISRDNAKNSLYLQMNSLRAEDTAVYYCARDLLIRFLEWSHYYGMDVWGQGTTVTVSS VL: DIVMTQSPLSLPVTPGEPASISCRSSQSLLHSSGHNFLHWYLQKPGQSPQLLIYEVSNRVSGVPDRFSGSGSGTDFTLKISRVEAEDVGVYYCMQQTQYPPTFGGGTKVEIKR",
    "Kd, nM": 0.197
  },
  {
    "Binder": "Ab104 (antibody, human IgG4 S228P, kappa, V domains shown) VH: EVQLVESGGGLVQPGGSLRLSCAASGSAFSSYGMSWVRQAPGKGLELVASINSNGGSTYYPDSVKGRFTISRDNAKNSLYLQMNSLRAEDTAVYYCARDLLVKFLSWSHYYGMDVWGQGTTVTVSS VL: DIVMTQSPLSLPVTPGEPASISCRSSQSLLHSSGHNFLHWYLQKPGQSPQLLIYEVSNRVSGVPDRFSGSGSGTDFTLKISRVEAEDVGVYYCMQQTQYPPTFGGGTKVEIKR",
    "Kd, nM": 0.145
  }
]

# input Please give the measured Kd for this binder: Ab103 (antibody, human IgG4 S228P, kappa, V domains shown) VH: EVQLVESGGGLVQPGGSLRLSCAASGYTFSSYGMSWVRQAPGKGLELVASITGDAGRTYYPDSVKGRFTISRDNAKNSLYLQMNSLRAEDTAVYYCARDTLVRFLEWSHYYGMDVWGQGTTVTVSS VL: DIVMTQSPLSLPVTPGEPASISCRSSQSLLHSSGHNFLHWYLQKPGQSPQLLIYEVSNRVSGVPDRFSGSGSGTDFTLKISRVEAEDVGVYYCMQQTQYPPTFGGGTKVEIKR
# output 0.379

# input Please give the measured Kd for this binder: Ab121 (antibody, human IgG4 S228P, kappa, V domains shown) VH: QVTLRESGPALVKPTQTLTLTCTVSGFSFSTSGMVVNWIRQPPGKALEWLAMIDWDADNIVYNSALKSRLTISKDTSKNQVVLTMTNMDPVDTATYYCAKDTGSGWFDAFDIWGQGTMVTVSS VL: DIVMTQSPDSLAVSLGERATINCKSSQSVLYSSTNQNFLAWYQQKPGQPPKLLIYQASTLQNGVPDRFSGSGSGTDFTLTISSLQAEDVAVYYCQQYLTTPYTFGGGTKVEIKR
# output 0.187

# input Please give the measured Kd for this binder: Ab107 (antibody, human IgG4 S228P, kappa, V domains shown) VH: EVQLVESGGGLVQPGGSLRLSCAASGSAFSSYGMSWVRQAPGKGLELVASINSNGGSTYYPDSVKGRFTISRDNAKNSLYLQMNSLRAEDTAVYYCARDQLVRFLEWSHYYGMDVWGQGTTVTVSS VL: DIVMTQSPLSLPVTPGEPASISCRSSQSLLHSSGHNFLHWYLQKPGQSPQLLIYAGSNRPSGVPDRFSGSGSGTDFTLKISRVEAEDVGVYYCAHATQLPHTFGGGTKVEIKR
# output 0.057

# input Please give the measured Kd for this binder: Ab115 (antibody, human IgG4 S228P, kappa, V domains shown) VH: QVQLVQSGAEVKKPGASVKVSCKVSGYAFTNYNIHWVRQAPGKGLEWMGGINPRTGGTIYAQKFQGRVTMTEDTSTDTAYMELSSLKSEDTAVYYCAKDIYTGVAVAGSGMDYWGQGTLVTVSS VL: DIQMTQSPSSVSASVGDRVTITCRASQGISTHLAWYQQKPGKAPKLLIYGASNLESGVPSRFSGSGSGTDFTLTISSLQPEDFANYYCQQANSFPWTFGGGTKVEIKR
# output 3.05

# input Please give the measured Kd for this binder: Ab108 (antibody, human IgG4 S228P, kappa, V domains shown) VH: EVQLVESGGGLVQPGGSLRLSCAASGSAFSSYGMSWVRQAPGKGLELVASINSNGGSTYYPDSVKGRFTISRDNAKNSLYLQMNSLRAEDTAVYYCARDLLVGFLQWSHYYGMDVWGQGTTVTVSS VL: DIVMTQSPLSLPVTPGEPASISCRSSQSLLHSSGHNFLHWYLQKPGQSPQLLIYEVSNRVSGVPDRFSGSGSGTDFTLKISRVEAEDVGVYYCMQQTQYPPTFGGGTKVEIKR
# output 0.218
